Collected pIC50 for Poly [ADP-ribose] polymerase 1 (Homo sapiens) across several studies; compounds listed below.
Notebook: values listed as pIC50 are -log10 of the concentration (mol/L).

NC(=O)c1cccc2[nH]c(-c3ccc(-c4ccc(OCCCN5CCCCC5)cc4)cc3)nc12	5.64
C[C@@H]1Cc2cccc(C(N)=O)c2O1	5.20
CC(C)C[C@H](NC(=O)[C@H](Cc1ccccc1)NC(=O)c1cc(Cc2n[nH]c(=O)c3ccccc23)ccc1F)B(O)O	6.54
O=C(c1ccc(Br)cc1)N1CCN(C(=O)c2csc(Cc3n[nH]c(=O)c4ccccc34)c2)CC1	7.14
CN(C)Cc1cccc(C2Nc3cccc4c(=O)[nH]nc(c34)C2c2ccccc2)c1 (stereo not given)	8.58
NC(=O)c1cccc2[nH]c(-c3ccc(Nc4c5ccccc5nc5ccccc45)cc3)nc12	7.05
NC(=O)c1cccc2c1O/C(=C\c1cccc(O)c1)C2=O	5.67
C[C@@H]1CN(Cc2ccc(-c3[nH]c4cc(F)cc5c4c3CCNC5=O)cc2)CCN1	9.18

In: Lab request: please report pIC50 under test system Poly [ADP-ribose] polymerase 1 (Homo sapiens) for COc1cc(/C=C2\Oc3c(C(N)=O)cccc3C2=O)ccc1O
Out: 5.44

* * *

Collected pIC50 for Poly [ADP-ribose] polymerase 1 (Homo sapiens) across several studies; molecules listed below.
Notebook: values listed as pIC50 are -log10 of the concentration (mol/L).

Take a look at these entries with their results.
Cc1cc(Nc2nccc(N(C)c3ccc4c(C)n(C)nc4c3)n2)cnc1-c1nc2c(C(N)=O)cccc2[nH]1	6.82
NC(=O)c1cccc2[nH]c(-c3ccc(-c4ccc(C(=O)N5CCCC5)cc4)cc3)nc12	6.51
Cn1ccc(-c2nnc3n2CCN(C(=O)c2cc(Cc4n[nH]c(=O)c5ccccc45)ccc2F)C3)n1	8.20

Here is another molecule to look at.
In: // query pIC50 value for entry O=C(c1cc(Cc2n[nH]c(=O)c3ccccc23)ccc1F)N1CCn2c(nc3ccccc32)C1
Out: 9.31

* * *

Collected log10 IC50 for Poly [ADP-ribose] polymerase 1 (Homo sapiens, UniProt P09874) across several studies; molecules listed below.
The figures below represent log10 of IC50, where IC50 is stated in nM.

Take a look at these entries with their results.
CN(C)S(=O)(=O)N1CCN(C(=O)c2cc(Cc3c[nH]c(=O)c4cc(Cl)c(Cl)n34)ccc2F)CC1	0.38
CC(C)c1ccc(N(C)c2ccnc(Nc3ccc(-c4nc5c(C(N)=O)cccc5[nH]4)cc3)n2)cc1	1.95
NC(=O)c1cccc2c1O/C(=C\c1ccc(OCC(=O)N3CCOCC3)cc1)C2=O	2.35
NC(=O)c1cncc2[nH]c(C3CCN(C(=O)c4cc(Cc5n[nH]c(=O)c6ccccc56)ccc4F)CC3)nc12	-0.64
NC(=O)c1cccc2c1O/C(=C\c1ccc(O)c(O)c1)C2=O	2.73
NC(=O)c1cccc2c1O/C(=C\c1ccc(Cl)cc1)C2=O	3.78
NC(=O)c1cccc2cn(-c3ccccc3Cl)nc12	2.00

Here is another molecule to look at.
In: // query log10 IC50 value for entry CNCc1ccc(-n2cc3c(Cl)ccc(C(N)=O)c3n2)cc1
Out: 2.26

* * *

Collected pIC50 for Poly [ADP-ribose] polymerase 1 (Homo sapiens, UniProt P09874) across several studies; molecules listed below.
Notebook: values listed as pIC50 are -log10 of the concentration (mol/L).

Cc1c2ccc(N(C)c3ccnc(Nc4ccc(-c5nc6c(C(N)=O)cccc6[nH]5)c(C(F)(F)F)c4)n3)cc2nn1C	6.79
O=c1[nH]cnc2cccc(Cl)c12	5.50
Cc1ccc(-c2nnc3n2CCN(C(=O)c2cc(Cc4n[nH]c(=O)c5ccccc45)ccc2F)C3)o1	9.62
O=C(c1cc(Cc2c[nH]c(=O)c3c(Cl)cc(Cl)n23)ccc1F)N1CCCNCC1	8.40
O=C(c1cc(Cc2n[nH]c(=O)c3ccccc23)cc(F)c1F)N1CCN(Cc2ccccc2)CC1	7.01

In: // query pIC50 value for entry Cc1cc(Br)cc2c(=O)[nH]c(CSc3ncccn3)nc12
Out: 5.60

In: And for CC(C)(C)C1NCCc2cc(-c3ccc4c(Cl)cc(C(N)=O)n4n3)sc21 (stereo not given) ?
Out: 5.99

In: And for O=C1N[C@@H]2N(Cc3ccccc3C23CCOCC3)c2ccccc21 ?
Out: 5.71

* * *

Collected IC50 for Poly [ADP-ribose] polymerase 1 (Homo sapiens) across several studies; compounds listed below.
Write down the numeric answer in nM and omit the unit.

Take a look at these entries with their results.
NC(=O)c1cccc(O)c1	9100
Nc1cc(-c2ccc([N+](=O)[O-])cc2)nc2c1C(c1cccs1)c1c([nH]c(=O)[nH]c1=O)O2 (stereo not given)	15.8
COc1ccc(C(=O)Nc2ccc(C(=O)N(c3ccncn3)c3ccccc3Cl)cc2)cc1	77000

In: // query IC50 value for entry Cc1c(Cc2ccc(F)c(C(=O)N3CCC4(CCCN4)CC3)c2)n[nH]c(=O)c1C
Out: 2.6

In: And for O=c1[nH]nc2c3c(cccc13)NC(c1cccnc1)C2C1CCCNC1 (stereo not given) ?
Out: 105

In: And for O=C(Nc1cccc(Cc2n[nH]c(=O)c3ccccc23)c1)C1CC1 ?
Out: 55

In: And for CCCCNCc1ccc(-c2cc3c4c(c[nH]c4c2)C(=O)NNC3=O)cc1 ?
Out: 35.4

In: And for CC(C)C(=O)Nc1cccc(Cc2nnc(O)c3ccccc23)c1 ?
Out: 370

In: And for Cc1nc2cccc(Cl)c2c(=O)[nH]1 ?
Out: 1180

In: And for O=C(c1cc(Cc2n[nH]c(=O)c3ccccc23)ccc1F)N1CCn2c(nnc2-c2ccc(C3CCOCC3)o2)C1 ?
Out: 2.33

In: And for CN(C)CC(=O)Nc1ccc(-n2cc3cccc(C(N)=O)c3n2)cc1 ?
Out: 15

In: And for Cc1c(Cc2ccc(F)c(C(=O)N3CCN(C(=O)C4(NCC5CC5)CCC4)CC3)c2)n[nH]c(=O)c1C ?
Out: 3.2

In: And for NC(=O)c1cccc2[nH]c(-c3ccc(-c4ccc(C(=O)N5CCCC5)nc4)cc3)nc12 ?
Out: 12

In: And for COc1cccnc1N1CCN(C(=O)c2cc(Cc3c[nH]c(=O)c4cc(Cl)c(Cl)n34)ccc2F)CC1 ?
Out: 15

In: And for O=C(c1cc(Cc2c[nH]c(=O)c3cc(Cl)c(Cl)n23)ccc1F)N1CCN(CCO)CC1 ?
Out: 13

In: And for Cn1ncnc1C1c2n[nH]c(=O)c3cc(F)cc(c23)NC1c1cncnc1 (stereo not given) ?
Out: 7.62

In: And for CN(C)Cc1cccc(C2c3n[nH]c(=O)c4cccc(c34)NC2c2ccccc2)c1 (stereo not given) ?
Out: 3.65

In: And for CC(C)C[C@H](NC(=O)[C@H](CCc1ccccc1)NC(=O)c1cc(Cc2n[nH]c(=O)c3ccccc23)ccc1F)B1O[C@@H]2C[C@@H]3C[C@@H](C3(C)C)[C@]2(C)O1 ?
Out: 100

In: And for O=C(c1cc(Cc2c[nH]c(=O)c3cc(Cl)c(Cl)n23)ccc1F)N1CCN(c2cccnc2)CC1 ?
Out: 12

In: And for Cn1ccnc1C1c2n[nH]c(=O)c3cc(Cl)cc(c23)NC1c1ccccc1 (stereo not given) ?
Out: 6.18

* * *

Collected IC50 for Poly [ADP-ribose] polymerase 1 (Homo sapiens) across several studies; compounds listed below.
Write down the numeric answer in µM and omit the unit.

Take a look at these entries with their results.
CN(C)Cc1ccc(C2c3n[nH]c(=O)c4cccc(c34)NC2c2ccccc2)cc1 (stereo not given)	0.00585
CN(C)C(C)(C)C(=O)N1CCN(C(=O)c2cc(Cc3c[nH]c(=O)c4cc(Cl)c(Cl)n34)ccc2F)CC1	0.0051
O=c1[nH]cnc2cc(C(F)(F)F)ccc12	7.5
O=C(c1cc(Cc2n[nH]c(=O)c3ccccc23)cc(F)c1F)N1CCN(Cc2cccnc2)CC1	0.157
O=C(CSc1nc2sc3c(c2c(=O)[nH]1)CCC3)N(CCO)CCO	2.14

In: // query IC50 value for entry CCCCN1CCN(C(=O)c2cc(Cc3n[nH]c(=O)c4ccccc34)cc(F)c2F)CC1
Out: 0.0021

In: And for CN(C)Cc1ccc(C2Nc3cccc4c(=O)[nH]nc(c34)C2c2ccccc2)cc1 (stereo not given) ?
Out: 0.00236

In: And for O=C(c1cc(Cc2n[nH]c(=O)c3ccccc23)cc(F)c1F)N1CCN(C2CCCCCC2)CC1 ?
Out: 0.0008

In: And for NC(=O)c1ccc(Br)cc1 ?
Out: 2200

* * *

Collected pIC50 for UniProt P09874 across several studies; compounds listed below.
Notebook: values listed as pIC50 are -log10 of the concentration (mol/L).

Take a look at these entries with their results.
Cc1c(CN2CCN(C(=O)c3cc4cccc(C(N)=O)c4o3)CC2)sc2c(N3CCOCC3)nc(-c3cccc4[nH]ccc34)nc12	6.85
CCOC(=O)c1ccc2[nH]c(=O)c3c(c2c1)CCSC3	6.27
CN1CCc2cc(-c3ccc4c(Cl)cc(C(N)=O)n4n3)sc2C1	6.85
CCCN1CCC(c2nc3cncc4c3n2CCNC4=O)CC1	7.72
O=C(c1cc(Cc2c[nH]c(=O)c3cccn23)ccc1F)N1CCCNCC1	8.74
NC(=O)c1cccc([N+](=O)[O-])c1	3.80
O=C(c1cc(Cc2n[nH]c(=O)c3ccccc23)ccc1F)N1CCn2c(nnc2-c2ccc(CN3CCOCC3)o2)C1	8.89
CNC(=O)c1ccc(N2CCN(Cc3ccc4c(c3)NC(=O)C(C)O4)CC2)cc1 (racemic)	7.54
CC1Cc2c(N)ccc(C(N)=O)c2O1 (single isomer, unassigned; enantiomer 1)	5.61
CNCc1ccc(-n2cc3cc(Cl)cc(C(N)=O)c3n2)cc1	8.30

In: Lab request: please report pIC50 under test system UniProt P09874 for O=C1NCC2c3c(cccc31)CCN2C(=O)Cc1cccnc1 (stereo unspecified)
Out: 9.00

In: And for CCNC(=O)c1ccc(N2CCN(Cc3ccc4c(c3)NC(=O)C(C)O4)CC2)cc1 (racemic) ?
Out: 7.66
